Just for reference, patent US6737383B1 is where these values come from.

Each entry below carries its recorded Velvetleaf plant response rating.
system: velvetleaf; experiment: Test B pre/postemergence velvetleaf; type: in vivo, Abutilon theophrasti; conditions: Rate 62 g/ha, Postemergence; scale 0 to 10 (0 no effect, 10 complete control)
I'd appreciate a reply containing only the number, no unit.

Use the examples below as a reference point.
compound="COC(CCl)n1c(=O)on(C(=O)N(c2ccc(Cl)cc2)C(C)C)c1=O (stereo not drawn)" measurednumber=0
compound="CC(C)N(C(=O)n1oc(=O)n(C2CCCCO2)c1=O)c1ccc(F)cc1 (stereo not drawn)" measurednumber=0
compound=CC(C)N(C(=O)n1oc(=O)n(-c2ccc3ccccc3c2)c1=O)c1ccc(F)cc1F measurednumber=0
compound=Cc1cccc(C)c1-n1c(=O)on(C(=O)N(c2ccc(Cl)cc2Cl)C2CCC2)c1=O measurednumber=0
compound="CC(C)N(C(=O)n1oc(=O)n(C(C)C(=O)N(C)C)c1=O)c1ccc(Cl)cc1 (stereo not drawn)" measurednumber=0

// below: Velvetleaf plant response rating requested for another compound
### Prompt Using known records, supply Velvetleaf plant response rating for CC(C)N(C(=O)n1oc(=O)n(C2CC3CCC2C3)c1=O)c1ccc(F)cc1F (stereo not drawn)
### Response 0

* * *

test system: sugar beet; assay: Test B pre/postemergence sugar beet; format: in vivo, Beta vulgaris; conditions: Rate 125 g/ha, Postemergence; scale 0 to 10
observationType: Sugarbeets plant response rating

compound="CCCCn1c(=O)on(C(=O)N(c2ccc(F)cc2)C(C)C)c1=O [Compound 221]" result=4
compound="CC(C)N(C(=O)n1oc(=O)n(Cc2ccco2)c1=O)c1ccc(F)cc1 [Compound 207]" result=0

### Prompt Using known records, supply Sugarbeets plant response rating for Cc1ccccc1-n1c(=O)on(C(=O)N(c2ccc(N(C)C)cc2)C(C)C)c1=O [Compound 237]
### Response 0

### Prompt Using known records, supply Sugarbeets plant response rating for Cc1ccccc1-n1c(=O)on(C(=O)N(c2ccc(Cl)cc2F)C(C)C)c1=O [Compound 195]
### Response 0

* * *

Each entry below carries its recorded Bedstraw plant response rating.
system: bedstraw; test: Test B pre/postemergence bedstraw; type: in vivo, Galium aparine; conditions: Postemergence, Rate 125 g/ha; scale of 0 to 10 where 0 is no effect and 10 is complete control
I'd appreciate a reply containing only the number, no unit.

molecule=CC(C)N(C(=O)n1oc(=O)n(CC(F)(F)F)c1=O)c1ccc(F)cc1 testtarget=bedstraw measurednumber=4
molecule=Cc1noc(C)c1-n1c(=O)on(C(=O)N(c2ccc(F)cc2)C(C)C)c1=O testtarget=bedstraw measurednumber=0
molecule="Cc1nc(C(C)n2c(=O)on(C(=O)N(c3ccccc3)C(C)C)c2=O)sc1C (centres unmarked)" testtarget=bedstraw measurednumber=0
molecule="CCC(C)n1c(=O)on(C(=O)N(c2ccc(F)cc2)C(C)C)c1=O (centres unmarked)" testtarget=bedstraw measurednumber=5

### Prompt Print bedstraw Bedstraw plant response rating for `COP(=O)(CCn1c(=O)on(C(=O)N(c2ccc(F)cc2F)C(C)C)c1=O)OC` .
### Response 0

* * *

tested on: smallflower flatsedge; assay: Test B flood test smallflower flatsedge; format: in vivo, Cyperus difformis; conditions: Rate 125 g/ha; Pre-emergence; flood test species; scale 0 to 10 where 0 is no effect and 10 is complete control
Each entry below carries its recorded S. Flatsedge plant response rating.
I'd appreciate a reply containing only the number, no unit.

Use the examples below as a reference point.
chemicalstructure=CC(C)=CCn1c(=O)on(C(=O)N(c2ccc(F)cc2)C(C)C)c1=O observationtype="S. Flatsedge plant response rating" measurednumber=0
chemicalstructure=Cc1nc(C)c(Cn2c(=O)on(C(=O)N(c3ccc(Cl)cc3)C(C)C)c2=O)s1 observationtype="S. Flatsedge plant response rating" measurednumber=0
chemicalstructure=CC(C)N(C(=O)n1oc(=O)n(-c2ccc3ccccc3c2)c1=O)c1ccc(F)cc1F observationtype="S. Flatsedge plant response rating" measurednumber=0

// below: S. Flatsedge plant response rating requested for another compound
### Prompt Using known records, supply S. Flatsedge plant response rating for `Cc1c(-n2c(=O)on(C(=O)N(c3ccc(F)cc3F)C(C)C)c2=O)ccc2ccccc12`
### Response 0
